This section presents molecules with their documented Displacement of Propidium from EeAChE PAS (%) values.
molecular target: EeAChE PAS (Electrophorus electricus, UniProt O42275); construct: Electric eel AChE (EeAChE, type VI-S, lyophilized powder); purchased Sigma-Aldrich type VI-S; host or cells: electric eel; assay type: binding; conditions: compound concentration 20 µM
Sequence (O42275 24-633): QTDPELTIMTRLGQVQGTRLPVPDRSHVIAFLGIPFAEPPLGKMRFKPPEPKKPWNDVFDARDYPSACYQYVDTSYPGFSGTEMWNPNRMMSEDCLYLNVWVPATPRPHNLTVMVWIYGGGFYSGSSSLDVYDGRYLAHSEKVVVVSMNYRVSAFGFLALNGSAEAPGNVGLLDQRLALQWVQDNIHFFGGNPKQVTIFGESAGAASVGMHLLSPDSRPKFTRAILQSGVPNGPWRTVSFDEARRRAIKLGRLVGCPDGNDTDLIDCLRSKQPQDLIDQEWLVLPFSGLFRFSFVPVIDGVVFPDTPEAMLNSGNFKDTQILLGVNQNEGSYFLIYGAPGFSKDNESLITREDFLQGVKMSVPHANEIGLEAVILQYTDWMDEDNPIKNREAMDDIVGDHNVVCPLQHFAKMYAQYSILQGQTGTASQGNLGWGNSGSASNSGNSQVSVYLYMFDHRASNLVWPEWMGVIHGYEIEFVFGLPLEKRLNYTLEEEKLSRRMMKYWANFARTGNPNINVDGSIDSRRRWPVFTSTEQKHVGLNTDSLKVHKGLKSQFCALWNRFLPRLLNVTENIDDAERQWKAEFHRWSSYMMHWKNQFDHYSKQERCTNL
State just the number; it will be interpreted in %.

Consider CC(C)(C)c1cc(C=NCCNc2c3c(nc4ccccc24)CCCCC3)cc(C(C)(C)C)c1O [Compound 7c] . Its measured Displacement of Propidium from EeAChE PAS (%) is 16.3

Consider CC(C)(C)c1cc(C=NCCNc2c3c(nc4ccccc24)CCCC3)cc(C(C)(C)C)c1O [Compound 7b] . Its measured Displacement of Propidium from EeAChE PAS (%) is 18.2

Consider CC(C)(C)c1cc(C=NCCNc2c3c(nc4ccccc24)CCC3)cc(C(C)(C)C)c1O [Compound 7a] . Its measured Displacement of Propidium from EeAChE PAS (%) is 18.1

Consider CC(C)(C)c1cc(CNCCNc2c3c(nc4ccccc24)CCC3)cc(C(C)(C)C)c1O [Compound 8a] . Its measured Displacement of Propidium from EeAChE PAS (%) is 16.4

Consider CC(C)(C)c1cc(C=NCCNc2c3c(nc4ccccc24)CCCCCC3)cc(C(C)(C)C)c1O [Compound 7d] . Its measured Displacement of Propidium from EeAChE PAS (%) is 17.1

Next molecule, Displacement of Propidium from EeAChE PAS (%) to be filled in.
Consider CC(C)(C)c1cc(CNCCNc2c3c(nc4ccccc24)CCCCC3)cc(C(C)(C)C)c1O [Compound 8c] . Its measured Displacement of Propidium from EeAChE PAS (%) is 13.6
